- Tested on: 186277-243-T-J2-PDC complex spheroid viability;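 further: spheroids exposed to compounds for seven days; 100% = DMSO vehicle control viability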
- PROTOCOL: Anticancer human tumor 186277-243-T-J2-PDC patient-derived colon adenocarcinoma cell line growth inhibition [POLQ]
- CONDITION_SUMMARY: second compound 0.1 µM; first compound 1 µM; hits give low values
- Experimental: Multicellular complex tumor spheroid response to Polymerase (POL) inhibitors (novobiocin, ART-558, RP6685) in combination with a variety of drugs and investigational agents in selected tumor cell lines The POL inhibitors (novobiocin, ART-558, and RP6685) were evaluated both individually and in combination with standard of care and investigational anticancer small molecules within a complex spheroid model of solid tumors. . […]
OBSERVED_PROPERTY: viability, T/C

Guide cases for viability, T/C, answers given:
1. O=C(c1cc(Cc2n[nH]c(=O)c3ccccc23)ccc1F)N1CCN(C(=O)C2CC2)CC1 + Nc1ccc(C#CCN(C(=O)Cc2ncc(C(F)(F)F)cc2C(F)(F)F)c2ccc(F)cc2)nn1 = 101%
2. CC1COCCN1c1cc(C2(S(C)(=N)=O)CC2)nc(-c2ccnc3[nH]ccc23)n1 (stereo unspecified) + COC1C(OC(N)=O)C(O)C(Oc2ccc3c(O)c(NC(=O)c4ccc(O)c(CC=C(C)C)c4)c(=O)oc3c2C)OC1(C)C = 38.1%
3. CC1COCCN1c1cc(C2(O)CC3CCC(C2)O3)c2cnn(-c3ccn[nH]3)c2n1 (stereo unspecified) + Nc1ccc(C#CCN(C(=O)Cc2ncc(C(F)(F)F)cc2C(F)(F)F)c2ccc(F)cc2)nn1 = 6.39%
4. O=C(Nc1ccc(O)c(NS(=O)(=O)c2ccc(F)cc2)c1)c1ccc(-c2ccccc2)cc1 + COC1C(OC(N)=O)C(O)C(Oc2ccc3c(O)c(NC(=O)c4ccc(O)c(CC=C(C)C)c4)c(=O)oc3c2C)OC1(C)C = 98.2%
5. C=CC(=O)N1CCN(c2nc(=O)n(-c3c(C)ccnc3C(C)C)c3nc(-c4c(O)cccc4F)c(F)cc23)C(C)C1 (stereo unspecified) + COC1C(OC(N)=O)C(O)C(Oc2ccc3c(O)c(NC(=O)c4ccc(O)c(CC=C(C)C)c4)c(=O)oc3c2C)OC1(C)C = 90.2%

Entry under review: O=c1[nH]cc(F)c(=O)[nH]1 + Cc1cccc(N(C)C(=O)C2C(O)CCN2c2nc(C)cc(C(F)(F)F)c2C#N)c1 . Reported viability, T/C?
98.3%

Entry under review: COc1ccc([C@@H](O)c2cc(-c3ncnc4cc(N5CCOCC5)ccc34)c(F)cc2Cl)nn1 + Nc1ccc(C#CCN(C(=O)Cc2ncc(C(F)(F)F)cc2C(F)(F)F)c2ccc(F)cc2)nn1 . Reported viability, T/C?
96.3%

Entry under review: O=c1[nH]cc(F)c(=O)[nH]1 + Nc1ccc(C#CCN(C(=O)Cc2ncc(C(F)(F)F)cc2C(F)(F)F)c2ccc(F)cc2)nn1 . Reported viability, T/C?
107%

Entry under review: COc1cc2cc(C(=O)CCC(=O)O)sc2cc1OC + Nc1ccc(C#CCN(C(=O)Cc2ncc(C(F)(F)F)cc2C(F)(F)F)c2ccc(F)cc2)nn1 . Reported viability, T/C?
100%

Entry under review: Nc1ccn(C2OC(CO)C(O)C2(F)F)c(=O)n1 (stereo unspecified) + Cc1cccc(N(C)C(=O)C2C(O)CCN2c2nc(C)cc(C(F)(F)F)c2C#N)c1 . Reported viability, T/C?
8.01%

Entry under review: CC1COCCN1c1cc(-c2ccnn2C)c2ccnc(-c3ccn[nH]3)c2n1 (stereo unspecified) + Cc1cccc(N(C)C(=O)C2C(O)CCN2c2nc(C)cc(C(F)(F)F)c2C#N)c1 . Reported viability, T/C?
4.22%

Entry under review: COc1ccc([C@@H](O)c2cc(-c3ncnc4cc(N5CCOCC5)ccc34)c(F)cc2Cl)nn1 + COC1C(OC(N)=O)C(O)C(Oc2ccc3c(O)c(NC(=O)c4ccc(O)c(CC=C(C)C)c4)c(=O)oc3c2C)OC1(C)C . Reported viability, T/C?
99.2%

Entry under review: CC1COCCN1c1cc(C2(O)CC3CCC(C2)O3)c2cnn(-c3ccn[nH]3)c2n1 (stereo unspecified) + COC1C(OC(N)=O)C(O)C(Oc2ccc3c(O)c(NC(=O)c4ccc(O)c(CC=C(C)C)c4)c(=O)oc3c2C)OC1(C)C . Reported viability, T/C?
2.7%

Entry under review: CC(C)n1c(=O)n(C)c2cnc3cc(F)c(-c4ccc(OCCCN5CCCCC5)nc4)cc3c21 + Cc1cccc(N(C)C(=O)C2C(O)CCN2c2nc(C)cc(C(F)(F)F)c2C#N)c1 . Reported viability, T/C?
92.3%
